Molecular target: Human IL-17A (Homo sapiens)
Sequence (Q16552 20-155 limits assumed): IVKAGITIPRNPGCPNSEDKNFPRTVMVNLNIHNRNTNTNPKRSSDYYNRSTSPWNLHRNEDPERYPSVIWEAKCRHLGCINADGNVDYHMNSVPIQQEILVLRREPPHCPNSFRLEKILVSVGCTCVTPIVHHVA
Assay: IL-17A enzyme-linked immunosorbent assay (competitive ELISA, IL-17A/IL-17Ra receptor-ligand binding)
Parameters: purchased Sino Biological Inc. 12047-H07B
Conditions: human IL-17A coated plate, human IL-17Ra, read-out: IC50, inhibitory activity of compounds on human IL-17A
pIC50: −log10 of the molar value.
Record form. Attribute: pIC50. Fill in for each entry.

Some compounds with recorded pIC50:
Cc1[nH]nc2c1-c1cc(F)c(NC(=O)[C@@H](NC(=O)c3cnnn3CCOC(F)F)C(C3CC3)C3CC3)cc1COCC2: ≥ 7.30
Cc1[nH]nc2c1-c1cc(F)c(NC(=O)[C@@H](NC(=O)c3ccnn3C3CC3)C(C3CC3)C3CC3)cc1CN(C)C(=O)C2: ≥ 7.30
Cc1[nH]nc2c1-c1cc(F)c(NC(=O)[C@@H](NC(=O)c3ccnn3CCCN3CCN(C)CC3)C(C3CC3)C3CC3)cc1COCC2: 6.82 to 7.30
Cc1[nH]nc2c1-c1cc(F)c(NC(=O)[C@@H](NC(=O)c3ccnn3C(C)C)C(C3CC3)C3CC3)cc1CN(C1CC1)CC2: ≥ 7.30
Cc1[nH]nc2c1-c1cnc(NC(=O)[C@@H](NC(=O)c3ccnn3C(C)C)C(C3CC3)C3CC3)cc1CN(C1(C(F)(F)F)CC1)CC2: ≥ 7.30
COC(=O)N[C@H](C(=O)Nc1cc2c(cc1F)-c1c(n[nH]c1C)CCOC2)C(C1CC1)C1CC1: 6.82 to 7.30

Please look at the items below and tell me pIC50 for each one, in order.
1. CCn1nccc1C(=O)N[C@H](C(=O)Nc1ccc2c(c1)COCCc1n[nH]c(C)c1-2)[C@H]1CC[C@H](C)CC1
2. Cc1[nH]nc2c1-c1cnc(NC(=O)[C@@H](NC(=O)c3ccnn3C(C)C)C(C3CC3)C3CC3)cc1CN(C1CC1)C(=O)C2
3. CC(C)=C(F)C(=O)N[C@H](C(=O)Nc1cc2c(cn1)-c1c(n[nH]c1C)CCOC2)C(C1CC1)C1CC1
4. CC(C)=C(F)C(=O)N[C@H](C(=O)Nc1cc2c(cn1)-c1c(n[nH]c1C)CC(=O)N(C(C)C(F)(F)F)C2)C(C1CC1)C1CC1 (mixture of isomers)

Response:
["≥ 7.30", "≥ 7.30", "≥ 7.30", "≥ 7.30"]

====

Target: Human IL-17AF (Homo sapiens, UniProt Q16552+Q96PD4)
Sequence (Q16552 24-155): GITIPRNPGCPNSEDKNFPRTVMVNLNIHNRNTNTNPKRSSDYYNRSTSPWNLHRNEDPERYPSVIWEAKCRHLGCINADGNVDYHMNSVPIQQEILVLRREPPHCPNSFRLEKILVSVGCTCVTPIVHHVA
Sequence (Q96PD4 31-163): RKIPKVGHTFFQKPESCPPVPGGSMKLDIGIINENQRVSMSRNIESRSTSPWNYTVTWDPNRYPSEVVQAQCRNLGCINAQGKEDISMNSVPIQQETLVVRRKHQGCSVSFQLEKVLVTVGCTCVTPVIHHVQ
Assay: IL-17AF ELISA (competitive ELISA, IL-17AF/IL-17Ra receptor-ligand binding)
Conditions: human IL-17AF coated plate, human IL-17Ra, read-out: IC50, inhibitory activity of compounds on human IL-17AF
Experimental: Experiment Example 2 IL-17AF ELISA The inhibitory effects of human IL-17AF inhibitors on receptor-ligand binding were quantitatively determined by a competitive ELISA. The ELISA was performed through the following steps. […] The color reaction was terminated by addition of 2.5 M HCl. Absorbance was measured at 450 nm using a BMG PHERStar microplate reader. […] The relative percent residual activity at each compound concentration was calculated according to Equation 1. […]
pIC50: −log10 of the molar value.
Readout kind: pIC50

Cc1[nH]nc2c1-c1cc(F)c(NC(=O)[C@@H](NC(=O)c3ccnn3C(C)C3CC3)C(C3CC3)C3CC3)cc1COCC2 (single isomer, unassigned) [compound 41b]: ≥ 7.00
Cc1[nH]nc2c1-c1ccc(NC(=O)[C@@H](NC(=O)c3ccnn3C)C(C3CC3)C3CC3)cc1COCC2: ≥ 7.00
Cc1[nH]nc2c1-c1cc(F)c(NC(=O)[C@@H](NC(=O)c3ccnn3CCCC(F)(F)F)C(C3CC3)C3CC3)cc1COCC2: 6.30 to 7.00
CCn1nccc1C(=O)N[C@H](C(=O)Nc1cc2c(cc1F)-c1c(n[nH]c1C)CC(C)(C)OC2)C(C1CC1)C1CC1: 6.30 to 7.00
Cc1[nH]nc2c1-c1cc(F)c(NC(=O)[C@@H](NC(=O)c3ccnn3C(C)C)C(C3CC3)C3CC3)cc1CN(CC(C)(F)F)C(=O)C2: 6.30 to 7.00
Cc1[nH]nc2c1-c1cnc(NC(=O)[C@@H](NC(=O)c3ccnn3C(C)C)C(C3CC3)C3CC3)cc1CN(CC(F)F)CC2: 6.30 to 7.00

Please look at the items below and tell me pIC50 for each one, in order.
1. Cc1[nH]nc2c1-c1cc(F)c(NC(=O)[C@@H](NC(=O)c3ccnn3C(C)C)C(C3CC3)C3CC3)cc1CN(C1CCC1)C(=O)C2
2. [2H]C([2H])(C1CC1)n1nccc1C(=O)N[C@H](C(=O)Nc1cc2c(cc1F)-c1c(n[nH]c1C)CCOC2)C(C1CC1)C1CC1
3. CCn1nccc1C(=O)N[C@H](C(=O)Nc1cc2c(cc1F)-c1c(n[nH]c1C)CC(=O)N(CC(C)(F)F)C2)C(C1CC1)C1CC1
4. CCn1nccc1C(=O)N[C@H](C(=O)Nc1cc2c(cc1F)-c1c(n[nH]c1C)CC(=O)N(C(C)C)C2)C(C1CC1)C1CC1

Response:
1. ≥ 7.00
2. ≥ 7.00
3. ≥ 7.00
4. ≥ 7.00

Please look at the items below and tell me pIC50 for each one, in order.
1. [2H]C([2H])([2H])C([2H])(n1nccc1C(=O)N[C@H](C(=O)Nc1cc2c(cn1)-c1c(n[nH]c1C)CCOC2)C(C1CC1)C1CC1)C([2H])([2H])[2H]
2. Cc1[nH]nc2c1-c1cc(F)c(NC(=O)[C@@H](NC(=O)c3ccnn3C(C)C)C(C3CC3)C3CC3)cc1CN(C1CCOCC1)CC2
3. Cc1[nH]nc2c1-c1cc(F)c(NC(=O)[C@@H](NC(=O)c3ccnn3CC(C)(C)F)C(C3CC3)C3CC3)cc1COCC2
4. CCn1nccc1C(=O)N[C@H](C(=O)Nc1cc2c(cn1)-c1c(n[nH]c1C)CCN(C1CC1)C2)C(C1CC1)C1CC1
5. CCn1nccc1C(=O)N[C@H](C(=O)Nc1ccc2c(c1)COCCc1n[nH]c(C)c1-2)C1CCCCC1
6. CSCCn1nccc1C(=O)N[C@H](C(=O)Nc1cc2c(cc1F)-c1c(n[nH]c1C)CCOC2)C(C1CC1)C1CC1
7. Cc1[nH]nc2c1-c1cc(F)c(NC(=O)[C@@H](NC(=O)c3ccnn3C(C)C)C(C3CC3)C3CC3)cc1CN(CC(C)(F)F)CC2
8. Cc1[nH]nc2c1-c1cnc(NC(=O)[C@@H](NC(=O)c3conc3C(C)C)C(C3CC3)C3CC3)cc1CN(C1CC1)CC2

Response:
1: ≥ 7.00; 2: 6.30 to 7.00; 3: 6.30 to 7.00; 4: ≥ 7.00; 5: 6.30 to 7.00; 6: ≥ 7.00; 7: 6.30 to 7.00; 8: ≥ 7.00
